Target: MAGL (Mus musculus, UniProt O35678)
Assay: In vitro competitive activity-based protein profiling (Table 2, % inhibition at 1 μM)
Assay type: biochemical
Settings: read-out: % Inhibition at 1 μM MAGL
Entries annotated with measured inhibition at 1 µM

- CCn1ncc(CN2CC3CN(C(=O)OC(C(F)(F)F)C(F)(F)F)CC3C2)c1C(=O)NC1CC1 (stereo not drawn): > 75%

Kindly review the next compound as well.
Problem: Which measured inhibition at 1 µM belongs to Cc1c(CN2CC3CN(C(=O)ON4C(=O)CCC4=O)CC3C2)cccc1N1CCC(NS(C)(=O)=O)CC1 (stereo not drawn) , tested on MAGL (Mus musculus, UniProt O35678)?
Result: 25 to 75%

====

Target: UniProt:Q8R2Y0
Sequence (Q8R2Y0 1-336): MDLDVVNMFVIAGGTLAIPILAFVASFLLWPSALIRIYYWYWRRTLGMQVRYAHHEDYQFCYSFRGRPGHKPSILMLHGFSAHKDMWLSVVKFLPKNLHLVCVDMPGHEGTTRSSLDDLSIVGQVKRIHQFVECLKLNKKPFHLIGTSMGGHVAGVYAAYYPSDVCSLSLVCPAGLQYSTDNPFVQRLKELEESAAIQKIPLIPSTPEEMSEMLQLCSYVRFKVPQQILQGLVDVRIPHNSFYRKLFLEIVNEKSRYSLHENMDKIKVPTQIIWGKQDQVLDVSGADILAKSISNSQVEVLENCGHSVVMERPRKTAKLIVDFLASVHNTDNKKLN
Assay: In vitro competitive activity-based protein profiling (Table 2, % inhibition at 1 μM)
Type: biochemical
Details: read-out: % Inhibition at 1 μM ABHD6
property: inhibition at 1 µM

- CC(C)n1cc(CN2CC3CN(C(=O)ON4C(=O)CCC4=O)CC3C2)c(-c2ccccc2)n1 (stereo not drawn): 25 to 75%
- CC(C)n1cc(CN2CC3CN(C(=O)OC(C(F)(F)F)C(F)(F)F)CC3C2)c(-c2ccccc2Cl)n1 (stereo not drawn): 25 to 75%

Problem: Looking for the measured inhibition at 1 µM of Cc1c(CN2CC3CN(C(=O)OC(C(F)(F)F)C(F)(F)F)CC3C2)cccc1N1CCCCC1 (stereo not drawn) , can you help?
Result: < 25%

Problem: Proceed to Cc1cc(CN2CC3CN(C(=O)OC(C(F)(F)F)C(F)(F)F)CC3C2)n(C(C)C)n1 (stereo not drawn)
Result: 25 to 75%

Problem: Proceed to O=C(OC(C(F)(F)F)C(F)(F)F)N1CC2CN(Cc3ccc(Cl)cc3N3CC4CCC(C3)O4)CC2C1 (stereo not drawn)
Result: 25 to 75%

Problem: Proceed to Cc1c(CN2CC3CN(C(=O)ON4C(=O)CCC4=O)CC3C2)cccc1N1CCN(S(C)(=O)=O)CC1 (stereo not drawn)
Result: < 25%

====

Molecular target: ABHD6 (Mus musculus, UniProt Q8R2Y0)
Assay: In vitro competitive activity-based protein profiling (Table 2, % inhibition at 1 μM)
Format: biochemical
Conditions: read-out: % Inhibition at 1 μM ABHD6
Protocol: After 30 min, FP—Rh (1.0 μL, 50 μM in DMSO) was added and the mixture was incubated for another 30 min at 37° C. Reactions were quenched with SDS loading buffer (50 μL-4×) and run on SDS-PAGE. Following gel imaging, serine hydrolase activity was determined by measuring fluorescent intensity of gel bands corresponding to MAGL, ABHD6 and FAAH using ImageJ 1.43 u software. […]
property: inhibition at 1 µM

Please review the following examples before continuing.
• CCn1cc(CN2CC3CN(C(=O)OC(C(F)(F)F)C(F)(F)F)CC3C2)c(-c2cccc(N3CCCC3)c2)n1 (stereo not shown) [Example 64] = < 25%
• CCN1CCN(c2cccc(CN3CC4CN(C(=O)OC(C(F)(F)F)C(F)(F)F)CC4C3)c2C)CC1 (stereo not shown) [Example 155] = 25 to 75%
• CC1COCCN1c1cc(Cl)ccc1CN1CC2CN(C(=O)ON3C(=O)CCC3=O)CC2C1 (stereo not shown) [Example 95] = < 25%

Kindly review the next compound as well.
Problem: Looking for the measured inhibition at 1 µM of CCn1ncc(CN2CC3CN(C(=O)OC(C(F)(F)F)C(F)(F)F)CC3C2)c1C(=O)NCCc1cccc(Cl)c1 (stereo not shown) [Example 180] , can you help?
Result: < 25%

====

Molecular target: Mouse brain MAGL (Mus musculus, UniProt O35678)
Construct: from tissue; host or cells: brain of wild-type C57Bl/6J mice dosed by oral gavage
Sequence (O35678 1-303): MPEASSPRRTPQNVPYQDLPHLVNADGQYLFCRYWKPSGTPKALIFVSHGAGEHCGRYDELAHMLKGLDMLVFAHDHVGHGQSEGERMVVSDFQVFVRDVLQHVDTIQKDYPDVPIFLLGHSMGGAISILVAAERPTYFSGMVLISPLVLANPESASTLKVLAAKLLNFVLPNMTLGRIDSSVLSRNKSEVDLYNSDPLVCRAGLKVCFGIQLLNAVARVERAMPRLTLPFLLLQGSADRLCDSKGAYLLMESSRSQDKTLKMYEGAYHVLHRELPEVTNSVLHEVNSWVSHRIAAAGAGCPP
Test: Mouse brain proteomes from inhibitor treated mice (oral gavage, ABPP analysis)
Format: in vivo
Conditions: p.o., sacrificed 4 h following administration
Experimental: After 30 min, FP—Rh (1.0 μL, 50 μM in DMSO) was added and the mixture was incubated for another 30 min at 37° C. Reactions were quenched with SDS loading buffer (50 μL-4×) and run on SDS-PAGE. Following gel imaging, serine hydrolase activity was determined by measuring fluorescent intensity of gel bands corresponding to MAGL, ABHD6 and FAAH using ImageJ 1.43 u software. Inhibitors were administered to wild-type C57Bl/6J by oral gavage in a vehicle of polyethylene glycol. […]
property: inhibition at 5 mg/kg

Problem: Looking for the measured inhibition at 5 mg/kg of CC(C)n1cc(CN2CC3CN(C(=O)OC(C(F)(F)F)C(F)(F)F)CC3C2)c(-c2cccc(Cl)c2)n1 (stereo not drawn) , can you help?
Result: ≤ 25%

Problem: Proceed to Cc1c(CN2CC3CN(C(=O)OC(C(F)(F)F)C(F)(F)F)CC3C2)cccc1N1C2CCC1COC2 (stereo not drawn)
Result: 25 to 75%

Problem: Proceed to CCn1cc(CN2CC3CN(C(=O)OC(C(F)(F)F)C(F)(F)F)CC3C2)c(-c2ccc(N3CCCCC3)cc2)n1 (stereo not drawn)
Result: ≤ 25%

Problem: Proceed to O=C(OC(C(F)(F)F)C(F)(F)F)N1CC2CN(Cc3cccc(Cl)c3N3CC[C@H](CF)C3)CC2C1 (stereo partly drawn)
Result: 25 to 75%

Problem: Proceed to Cn1cc(CN2CC3CN(C(=O)OC(C(F)(F)F)C(F)(F)F)CC3C2)c(-c2ccccc2Cl)n1 (stereo not drawn)
Result: ≤ 25%

Problem: Proceed to Cc1cccc(CN2CC3CN(C(=O)OC(C(F)(F)F)C(F)(F)F)CC3C2)c1N1CCC2(CCOC2)C1 (stereo not drawn)
Result: 25 to 75%

Problem: Proceed to CC(=O)N1CCN(c2cccc(CN3CC4CN(C(=O)OC(C(F)(F)F)C(F)(F)F)CC4C3)c2C)CC1 (stereo not drawn)
Result: ≤ 25%

Problem: Proceed to O=C(OC(C(F)(F)F)C(F)(F)F)N1CC2CN(Cc3cccc(Cl)c3N3CCC4(CCOCC4)C3)CC2C1 (stereo not drawn)
Result: ≤ 25%

Problem: Proceed to O=C(OC(C(F)(F)F)C(F)(F)F)N1CC2CN(Cc3cc(CN4CCOCC4)ccc3OC(F)(F)F)CC2C1 (stereo not drawn)
Result: ≥ 75%

Problem: Proceed to CCn1cc(CN2CC3CN(C(=O)OC(C(F)(F)F)C(F)(F)F)CC3C2)c(-c2ccc(N3CCC3)cc2)n1 (stereo not drawn)
Result: ≤ 25%

Problem: Proceed to CC(C)n1cc(CN2CC3CN(C(=O)OC(C(F)(F)F)C(F)(F)F)CC3C2)c(C2CCN(S(C)(=O)=O)CC2)n1 (stereo not drawn)
Result: ≤ 25%

Problem: Proceed to CC(C)(C)c1cc(CN2CC3CN(C(=O)OC(C(F)(F)F)C(F)(F)F)CC3C2)n(-c2ccccc2Cl)n1 (stereo not drawn)
Result: 25 to 75%

====

Entries annotated with measured inhibition at 1 µM
Target: MAGL (Mus musculus)
Sequence (O35678 1-303): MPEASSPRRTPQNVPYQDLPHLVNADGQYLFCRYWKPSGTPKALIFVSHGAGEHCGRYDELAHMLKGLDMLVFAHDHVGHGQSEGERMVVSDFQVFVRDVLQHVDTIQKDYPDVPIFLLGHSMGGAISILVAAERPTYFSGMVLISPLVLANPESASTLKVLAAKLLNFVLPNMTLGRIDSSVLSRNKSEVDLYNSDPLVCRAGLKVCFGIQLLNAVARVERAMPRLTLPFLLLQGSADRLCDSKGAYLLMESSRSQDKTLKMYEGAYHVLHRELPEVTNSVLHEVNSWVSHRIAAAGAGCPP
Assay: In vitro competitive activity-based protein profiling (Table 2, % inhibition at 1 μM)
Type: biochemical
Conditions: read-out: % Inhibition at 1 μM MAGL
Protocol: After 30 min, FP—Rh (1.0 μL, 50 μM in DMSO) was added and the mixture was incubated for another 30 min at 37° C. Reactions were quenched with SDS loading buffer (50 μL-4×) and run on SDS-PAGE. Cell lysates were diluted with mock proteomes for use in competitive ABPP experiments.

Please review the following examples before continuing.
• O=C(OC(C(F)(F)F)C(F)(F)F)N1CC2CN(Cc3ccc(N4CCCC4)cc3C(F)F)CC2C1 (stereo not drawn) = > 75%
• O=C(OC(C(F)(F)F)C(F)(F)F)N1CC2CN(Cc3cc(CN4CCOCC4)ccc3OC(F)(F)F)CC2C1 (stereo not drawn) = > 75%
• O=C(OC(C(F)(F)F)C(F)(F)F)N1CC2CN(Cc3ccc(C(=O)N4CCCC4)c(OC(F)(F)F)c3)CC2C1 (stereo not drawn) = > 75%

Problem: Looking for the measured inhibition at 1 µM of O=C(OC(C(F)(F)F)C(F)(F)F)N1CC2CN(Cc3ccc(Cl)cc3N3CCC(C(=O)N4CCCC4)CC3)CC2C1 (stereo not drawn) , can you help?
Result: > 75%

Problem: Proceed to CS(=O)(=O)N1CCC2(CCN(c3ccccc3CN3CC4CN(C(=O)OC(C(F)(F)F)C(F)(F)F)CC4C3)C2)C1 (stereo not drawn)
Result: > 75%

Problem: Proceed to CC(=O)N1CCN(c2cc(C(C)C)ccc2CN2CC3CN(C(=O)ON4C(=O)CCC4=O)CC3C2)CC1 (stereo not drawn)
Result: < 25%

Problem: Proceed to O=C(OC(C(F)(F)F)C(F)(F)F)N1CC2CN(Cc3ccc(C(=O)N4CCOCC4)c(OC(F)(F)F)c3)CC2C1 (stereo not drawn)
Result: < 25%

Problem: Proceed to O=C(OC(C(F)(F)F)C(F)(F)F)N1CC2CN(Cc3ccc(N4CCOCC4)cc3F)CC2C1 (stereo not drawn)
Result: > 75%

Problem: Proceed to Cc1c(CN2CC3CN(C(=O)ON4C(=O)CCC4=O)CC3C2)cccc1N1CCN(C)CC1 (stereo not drawn)
Result: < 25%

Problem: Proceed to CCn1cc(CN2CC3CN(C(=O)OC(C(F)(F)F)C(F)(F)F)CC3C2)c(-c2cccc(N3CCCCC3)c2)n1 (stereo not drawn)
Result: > 75%
